B1: Ceramide transfer protein (Homo sapiens), Q9Y5P4-2 (parent)
chain: MSDNQSWNSSGSEEDPETESGPPVERCGVLSKWTNYIHGWQDRWVVLKNNALSYYKSEDETEYGCRGSICLSKAVITPHDFDECRFDISVNDSVWYLRAQDPDHRQQWIDAIEQHKTESGYGSESSLRRHGSMVSLVSGASGYSATSTSSFKKGHSLREKLAEMETFRDILCRQVDTLQKYFDACADAVSKDELQRDKVVEDDEDDFPTTRSDGDFLHSTNGNKEKLFPHVTPKGINGIDFKGEAITFKATTAGILATLSHCIELMVKREDSWQKRLDKETEKKRRTEEAYKNAMTELKKKSHFGGPDYEEGPNSLINEEEFFDAVEAALDRQDKIEEQSQSEKVRLHWPTSLPSGDAFSSVGTHRFVQKVEEMVQNHMTYSLQDVGGDANWQLVVEEGEMKVYRREVEENGIVLDPLKATHAVKGVTGHEVCNYFWNVDVRNDWETTIENFHVVETLADNAIIIYQTHKRVWPASQRDVLYLSVIRKIPALTENDPETWIVCNFSVDHDSAPLNNRCVRAKINVAMICQTLVSPPEGNQEISRDNILCKITYVANVNPGGWAPASVLRAVAKREYPKFLKRFTSYVQEKTAGKPILF

- Variants of: B1
- condition.summary: with samp_human APCS
property.label: effect of a mutation on the interaction

>>> endpoint_result("N434A;Y435A")
"with no effect"
>>> endpoint_result("V472A;W473A")
"with no effect"
